Target protein (sequence): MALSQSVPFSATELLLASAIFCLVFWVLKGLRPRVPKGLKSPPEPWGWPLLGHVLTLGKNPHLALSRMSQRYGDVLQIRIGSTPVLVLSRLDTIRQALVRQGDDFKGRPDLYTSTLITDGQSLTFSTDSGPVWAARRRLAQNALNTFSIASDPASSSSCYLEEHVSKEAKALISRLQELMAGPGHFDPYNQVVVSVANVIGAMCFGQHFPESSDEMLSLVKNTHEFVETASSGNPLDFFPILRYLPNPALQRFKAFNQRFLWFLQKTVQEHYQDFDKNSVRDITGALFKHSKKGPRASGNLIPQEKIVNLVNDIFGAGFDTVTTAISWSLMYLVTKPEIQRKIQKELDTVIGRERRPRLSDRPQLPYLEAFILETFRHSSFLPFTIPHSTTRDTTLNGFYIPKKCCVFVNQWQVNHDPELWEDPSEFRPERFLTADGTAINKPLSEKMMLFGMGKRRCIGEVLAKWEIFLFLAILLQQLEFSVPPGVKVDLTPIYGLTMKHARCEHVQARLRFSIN
pIC50: −log10 of the molar value.

smiles-input: Cn1nc(Cc2ccc(NS(N)(=O)=O)cc2)c2ccccc2c1=O
pIC50: < 5.00

Hello, the source for this data is ChEMBL document CHEMBL5370672, in case you need it.
